Tested on: KRAS-mutant PDC tumor spheroid with HUVEC/MSC, viability;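 also: spheroids exposed to agents for seven days before reading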
Assay: Anticancer human tumor 327498-153-R-J2-PDC patient-derived uterine carcinosarcoma cell line growth inhibition [KRAS2]
Conditions: curve of first compound; second compound 1 µM
pIC50: −log10 of the molar value.
endpoint.label: pIC50

Please review the following examples before continuing.
* CC1COCCN1c1cc(-c2ccnn2C)c2ccnc(-c3ccn[nH]3)c2n1 (stereo not drawn) + CNCc1ccccc1-c1csc(C(C)Nc2nc(C)nc3cc(OC)c(OC)cc23)c1 | 7.82
* CC1(C)CCC(CN2CCN(c3ccc(C(=O)NS(=O)(=O)c4ccc(NCC5CCOCC5)c([N+](=O)[O-])c4)c(Oc4cnc5[nH]ccc5c4)c3)CC2)=C(c2ccc(Cl)cc2)C1 + CC1OCC2(CCN(c3cnc(Sc4ccnc(N)c4Cl)c(N)n3)CC2)C1N | > 7.50

Here is another molecule to look at.
COc1cc(Nc2ncc3c(n2)-c2ccc(Cl)cc2C(c2c(F)cccc2OC)=NC3)ccc1C(=O)O + COc1cc2nc(C)nc(NC(C)c3cc(N)cc(C(F)(F)F)c3)c2cc1OC1CCOC1 has a reported pIC50 of > 7.50
